Assign HEK-Blue, IL-36α, IC50 (IgG) to each entry below.
Target: T1, human IL1RAP (hu-IL1RAP) on human cells (human, UniProt Q9NPH3 21-570)
T1 sequence: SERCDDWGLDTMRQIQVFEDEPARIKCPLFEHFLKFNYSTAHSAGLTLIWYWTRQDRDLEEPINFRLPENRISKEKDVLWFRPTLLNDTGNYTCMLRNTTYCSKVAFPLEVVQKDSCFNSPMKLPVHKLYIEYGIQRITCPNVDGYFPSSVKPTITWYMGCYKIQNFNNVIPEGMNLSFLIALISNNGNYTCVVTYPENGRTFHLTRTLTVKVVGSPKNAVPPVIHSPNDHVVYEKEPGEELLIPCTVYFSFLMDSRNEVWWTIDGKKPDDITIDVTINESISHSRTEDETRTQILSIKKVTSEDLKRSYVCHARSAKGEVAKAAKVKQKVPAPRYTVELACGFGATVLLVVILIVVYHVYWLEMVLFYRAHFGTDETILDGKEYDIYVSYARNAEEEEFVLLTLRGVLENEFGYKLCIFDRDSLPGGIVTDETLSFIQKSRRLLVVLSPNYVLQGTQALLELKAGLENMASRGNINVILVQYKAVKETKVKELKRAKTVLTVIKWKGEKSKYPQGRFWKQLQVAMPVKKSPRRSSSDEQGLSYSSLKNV
Assay: cell-based or functional assay
Report the figure along with its unit, number first.

Give the measured HEK-Blue, IL-36α, IC50 (IgG) of Parent IgG Ab (full-length IgG of h11C5_C59Y/A43S) (antibody, V domains shown) VH: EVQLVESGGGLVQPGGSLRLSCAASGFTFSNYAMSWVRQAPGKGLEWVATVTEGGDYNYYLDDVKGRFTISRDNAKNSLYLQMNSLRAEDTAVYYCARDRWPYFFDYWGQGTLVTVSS VL: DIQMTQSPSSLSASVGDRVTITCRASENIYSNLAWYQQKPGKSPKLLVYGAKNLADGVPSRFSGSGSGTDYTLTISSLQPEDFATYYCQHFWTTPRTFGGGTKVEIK . 0.34 nM

Give the measured HEK-Blue, IL-36α, IC50 (IgG) of h11C5 variant K13/H2 IgG (YID) (antibody, V domains shown, Human IgG1 N297G; also called 11C5-YID) VH: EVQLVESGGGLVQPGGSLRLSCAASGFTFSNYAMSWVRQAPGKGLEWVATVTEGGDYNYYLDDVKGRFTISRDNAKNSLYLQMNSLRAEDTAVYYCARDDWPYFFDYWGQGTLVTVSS VL: DIQMTQSPSSLSASVGDRVTITCRASENIYSNLAWYQQKPGKSPKLLVYGYKNLADGVPSRFSGSGSGTDYTLTISSLQPEDFATYYCQHFITTPRTFGGGTKVEIKR . 0.477 nM

Give the measured HEK-Blue, IL-36α, IC50 (IgG) of K10/H3 IgG (VL-A51Y, VH-V51S) (antibody, V domains shown) VH: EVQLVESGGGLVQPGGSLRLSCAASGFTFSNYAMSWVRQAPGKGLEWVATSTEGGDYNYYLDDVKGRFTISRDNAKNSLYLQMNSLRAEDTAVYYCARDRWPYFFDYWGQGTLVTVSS VL: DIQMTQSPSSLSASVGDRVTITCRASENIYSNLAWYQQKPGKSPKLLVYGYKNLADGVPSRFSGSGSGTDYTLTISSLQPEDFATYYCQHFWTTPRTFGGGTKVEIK . 0.28 nM
